Test system: CCRIS mutagenicity, Ames/micronucleus/aberration tests
Experiment: CCRIS mutagenicity studies
Conditions: Test System: AMES SALMONELLA TYPHIMURIUM; Strain/Indicator: TA100; Metabolic Activation: NONE; Method: PREINCUBATION
The source made the active and inactive calls. How the calls were made is not given here.
Use one of these outcomes when replying: class 1 for active, class 0 for inactive

Use the examples below as a reference point.
# molecule, labelClass
rows = [
    ("CCCCCCCCO", "class 0"),
    ("Nc1cc2nc3ccccc3nc2cc1N", "class 0"),
    ("O=C(/C=C/c1ccccc1)c1ccccc1", "class 0"),
]

[Q] Tell me the assay call for `CC(=O)Nc1ccc(Oc2ccc(N(O)C=O)cc2)cc1` please.
[A] class 1

[Q] Tell me the assay call for `CCCCCCCCCCCCO` please.
[A] class 0

[Q] Tell me the assay call for `S=c1nc[nH]c2nc[nH]c12` please.
[A] class 0

[Q] Tell me the assay call for `[O]=[Cr](=[O])([OH])[O][Cr](=[O])(=[O])[OH]` please.
[A] class 1

[Q] Tell me the assay call for `CCOCCCl` please.
[A] class 0

[Q] Tell me the assay call for `Cc1cccc2cccnc12` please.
[A] class 0

[Q] Tell me the assay call for COc1ccccc1CC1CO1 (stereo not given) please.
[A] class 1
